Hey, just so you know, these numbers are from the supplement of paper PMC3545927.

biological target: furin, P09958; test: furin cleavage Z-score vs untreated control; higher = more cleavage, active = 3.5 or more, inactive = 1 or less, 8 variable residues between constant flanks; conditions: 30 min;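 also: purified furin at 1:10 enzyme:substrate in 50 mM HEPES pH 7.5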
Sequence (P09958 whole entry): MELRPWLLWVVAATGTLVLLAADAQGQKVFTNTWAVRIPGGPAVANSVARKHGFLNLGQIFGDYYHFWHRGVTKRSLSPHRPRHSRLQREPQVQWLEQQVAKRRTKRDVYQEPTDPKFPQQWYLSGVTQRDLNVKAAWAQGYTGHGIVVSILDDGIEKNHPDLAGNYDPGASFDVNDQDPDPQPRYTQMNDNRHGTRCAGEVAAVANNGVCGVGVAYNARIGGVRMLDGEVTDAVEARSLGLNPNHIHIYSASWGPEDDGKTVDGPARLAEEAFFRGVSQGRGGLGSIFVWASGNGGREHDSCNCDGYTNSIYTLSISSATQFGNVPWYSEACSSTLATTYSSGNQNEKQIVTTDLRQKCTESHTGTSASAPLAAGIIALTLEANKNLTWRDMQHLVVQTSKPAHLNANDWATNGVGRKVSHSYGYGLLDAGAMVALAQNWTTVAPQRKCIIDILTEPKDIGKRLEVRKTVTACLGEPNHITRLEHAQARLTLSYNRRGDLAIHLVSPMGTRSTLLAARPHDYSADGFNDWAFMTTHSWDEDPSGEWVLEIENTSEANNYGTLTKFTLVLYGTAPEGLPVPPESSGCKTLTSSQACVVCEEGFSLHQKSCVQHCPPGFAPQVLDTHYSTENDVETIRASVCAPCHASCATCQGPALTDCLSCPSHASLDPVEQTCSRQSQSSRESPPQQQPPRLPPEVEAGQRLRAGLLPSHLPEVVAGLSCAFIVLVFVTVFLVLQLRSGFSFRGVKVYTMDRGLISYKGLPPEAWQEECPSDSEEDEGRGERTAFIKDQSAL
The list shows a part of the results. The true hit rate is not given.
Classify by measured furin cleavage Z-score: Yes if it is equal to or exceeds 3, No if it is smaller.

{"Chain": "CARWRRVAVGAGNASASA [FS-2846]", "Class Assignment": "Yes"}
{"Chain": "CARNKRTCSAAGNASASA [FS-2160]", "Class Assignment": "No"}
{"Chain": "CARKGRCVEPAGNASASA [FS-2686]", "Class Assignment": "Yes"}
{"Chain": "CAAFGRRRRDAGNASASA [FS-639]", "Class Assignment": "Yes"}
{"Chain": "CARTGRPVEPAGNASASA [FS-2822]", "Class Assignment": "No"}
{"Chain": "CAPVRRRGDSAGNASASA [HC731]", "Class Assignment": "No"}
{"Chain": "CAHCSRSKRPAGNASASA [FS-790]", "Class Assignment": "No"}
{"Chain": "CAYTPCSAHLAGNASASA [HC2469]", "Class Assignment": "No"}
{"Chain": "CASTPCSATLAGNASASA [HC2558]", "Class Assignment": "No"}
{"Chain": "CAVTVRWKRGAGNASASA [FS-313]", "Class Assignment": "Yes"}
{"Chain": "CARRNRLRKDAGNASASA [FS-87]", "Class Assignment": "Yes"}
{"Chain": "CARWRRSDILAGNASASA [FS-3133]", "Class Assignment": "Yes"}
{"Chain": "CAGRLRPLRDAGNASASA [FS-164]", "Class Assignment": "Yes"}
{"Chain": "CAPPPRRTRDAGNASASA [FS-840]", "Class Assignment": "Yes"}
{"Chain": "CASTPCSAILAGNASASA [HC2544]", "Class Assignment": "No"}
{"Chain": "CAGSATLCSAAGNASASA [HC294]", "Class Assignment": "No"}
{"Chain": "CAFEECSQHLAGNASASA [HC1667]", "Class Assignment": "No"}
{"Chain": "CAYLRRRRRVAGNASASA [FS-391]", "Class Assignment": "Yes"}
{"Chain": "CALQGRSSRDAGNASASA [FS-357]", "Class Assignment": "No"}
{"Chain": "CARRKRLRQDAGNASASA [FS-2780]", "Class Assignment": "No"}
{"Chain": "CARNKRTCSEAGNASASA [FS-2161]", "Class Assignment": "Yes"}
{"Chain": "CARRKRKNKDAGNASASA [FS-1967]", "Class Assignment": "No"}
{"Chain": "CAGLDRLRRVAGNASASA [FS-1126]", "Class Assignment": "No"}
{"Chain": "CARRIRPTHPAGNASASA [FS-3048]", "Class Assignment": "No"}
